Target: β-secretase(BACE) (Homo sapiens, UniProt P56817)
Construct: purchased Panvera
Sequence (P56817 46-501): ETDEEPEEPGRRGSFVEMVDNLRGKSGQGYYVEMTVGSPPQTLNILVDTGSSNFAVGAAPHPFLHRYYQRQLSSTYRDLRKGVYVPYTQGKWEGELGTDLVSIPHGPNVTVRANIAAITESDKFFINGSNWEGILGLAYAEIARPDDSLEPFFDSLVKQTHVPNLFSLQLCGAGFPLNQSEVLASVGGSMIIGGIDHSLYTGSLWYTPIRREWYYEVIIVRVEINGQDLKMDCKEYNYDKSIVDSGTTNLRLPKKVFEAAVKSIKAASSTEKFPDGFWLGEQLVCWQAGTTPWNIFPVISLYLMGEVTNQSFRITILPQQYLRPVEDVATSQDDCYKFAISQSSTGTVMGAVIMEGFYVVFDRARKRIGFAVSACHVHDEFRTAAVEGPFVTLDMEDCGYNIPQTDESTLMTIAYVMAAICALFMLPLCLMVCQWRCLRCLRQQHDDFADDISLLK
Test: BACE FS1% Inhibition Assay
Format: biochemical
Settings: 1 μM test compound; FS1 substrate; 1 µM
property: % Inhibition (FS) 1 μM (%)
Quick note: give the figure in %, leave out the unit.

{"columns": ["compound", "assayed_target", "% Inhibition (FS) 1 μM (%)"],
 "data": [
  ["COc1ccccc1-c1ccc2c(c1)CN(Cc1cccc(C(=O)N(C)C3CCCCC3)c1)C(N)=N2", "β-secretase(BACE) (Homo sapiens, UniProt P56817)", 110]
]}

Summary: NC1=Nc2ccc(Oc3ccccc3)cc2CN1CCC(=O)NC1C2CC3CC(C2)CC1C3 (centres unmarked) , β-secretase(BACE) (Homo sapiens, UniProt P56817), % Inhibition (FS) 1 μM = 119

---

In this section, each of the compounds is paired with its reported inhibition at 3 µM.
Molecular target: β-secretase(BACE) (Homo sapiens, UniProt P56817)
Construct: purchased Panvera
Assay: BACE FS1% Inhibition Assay
Assay type: biochemical
Settings: 3 μM test compound; FS1 substrate; read-out: % Inhibition (FS) 3 μM
Write the number in % without appending the unit.

Solved entries:
{"columns": ["compound", "readout_unit", "inhibition at 3 µM"],
 "data": [
  ["COc1ccccc1-c1ccc2c(c1)CN(Cc1cccc(C(=O)N(C)C3CCCCC3)c1)C(N)=N2 [Compound 167]", "%", 113],
  ["CC(C)(C)C(=O)NCCN1Cc2cc(Oc3ccccc3)ccc2N=C1N [Compound 141]", "%", 100]
]}

Data point: CN(C(=O)CC[C@@H](C1CCCCC1)N1Cc2cc(Oc3ccccc3)ccc2N=C1N)C1CCOCC1 [Compound 638] ; inhibition at 3 µM = 116

Recorded result, CCC(c1cccc(C(=O)N(C2CCCCC2)C2CCCCC2)c1)N1Cc2cc(Oc3ccccc3)ccc2N=C1N (centres unmarked) [Compound 419] , inhibition at 3 µM: 109

Measured inhibition at 3 µM, CN(C(=O)c1cccc(CN2Cc3cc(-c4ccccc4C#N)ccc3N=C2N)c1)C1CCCCC1 [Compound 263] : 92

Reported inhibition at 3 µM for NC1=Nc2ccc(Oc3ccccc3)cc2CN1CCC(=O)NC1CCCCC1 [Compound 178] was 107

Looking up COc1cccc(OC)c1-c1ccc2c(c1)CN(Cc1cccc(C(=O)N(C)C3CCCCC3)c1)C(N)=N2 [Compound 264] , I see its inhibition at 3 µM listed as 92

Field inhibition at 3 µM (entry CC(C)CCC(=O)NCCN1Cc2cc(-c3ccccc3F)ccc2N=C1N [Compound 647] ) reads 113

---

Target: β-secretase(BACE) (Homo sapiens)
Construct: purchased Panvera
Assay: BACE FS1% Inhibition Assay
Format: biochemical
Details: 1 μM test compound; FS1 substrate
The entries below come with measured % Inhibition (FS) 1 μM values attached.

{"columns": ["compound", "% Inhibition (FS) 1 μM"],
 "data": [
  ["CN(C(=O)c1cccc(CN2Cc3cc(OCc4ccccc4-c4ccccc4)ccc3N=C2N)c1)C1CCCCC1", "<30%"],
  ["CC1CCCCN1C(=O)CCCC(CCC(=O)N1CCCCC1C)N1Cc2cc(Oc3ccccc3)ccc2N=C1N (stereo not drawn)", "31%"],
  ["NC1=Nc2ccc(-c3ccccc3Cl)cc2CN1CCNC(=O)C1CCCC1", "94%"],
  ["CCCC=Cc1ccc2c(c1)CN(CCNC(=O)c1ccc(NC(C)=O)cc1)C(N)=N2", "<30%"]
]}

Summary for this compound, CC(=O)c1cccc(-c2ccc3c(c2)CN(CCNC(=O)c2cc(C)oc2C)C(N)=N3)c1 : % Inhibition (FS) 1 μM is <30%

Form field % Inhibition (FS) 1 μM, entry NC1=Nc2ccc(Oc3c(F)cccc3F)cc2CN1CCC(=O)NC1C2CC3CC(C2)CC1C3 (stereo not drawn) : <30%

For reference, reported % Inhibition (FS) 1 μM for CCCN(CC1CC1)C(=O)c1cccc(CN2Cc3cc(Oc4ccccc4)ccc3N=C2N)c1 stands at <30%

---

Biological target: β-secretase(BACE) (Homo sapiens, UniProt P56817)
Construct: purchased Panvera
Test: BACE FS1% Inhibition Assay
Format: biochemical
Details: 3 μM test compound; FS1 substrate
Experimental: BACE FS1% Inhibition Assay The following reagents were used in this assay: sodium acetate, PEG8000 (Sigma), DMSO, HEPES, FS1 substrate [[…]] […] The FS1-substrate stock solution was prepared in DMSO as a 10 mg/mL solution. The FS1-substrate working solution was prepared by diluting the 10 mg/mL stock solution with substrate assay buffer to a final concentration of 300 μg/mL. […] For test compounds, % inhibition was determined at each concentration as follows: [formula]
property: % Inhibition (FS) 3 μM

Sample answers from the record:
{"columns": ["compound", "assayed_target", "% Inhibition (FS) 3 μM"],
 "data": [
  ["NC1=Nc2ccc(Oc3ccccc3)cc2CN1CCCNC(=O)C1CC1 [Compound 143]", "β-secretase(BACE) (Homo sapiens, UniProt P56817)", "<30%"],
  ["CC(C)(C)c1ccc(C(=O)NCCN2Cc3cc(Oc4ccccc4)ccc3N=C2N)cc1 [Compound 156]", "β-secretase(BACE) (Homo sapiens, UniProt P56817)", "<30%"],
  ["CN(C(=O)c1cccc(CN2Cc3cc(OCc4ccccc4-c4ccccc4)ccc3N=C2N)c1)C1CCCCC1 [Compound 513]", "β-secretase(BACE) (Homo sapiens, UniProt P56817)", "<30%"],
  ["CN(C(=O)c1ncoc1CN1Cc2cc(Oc3ccccc3)ccc2N=C1N)C1CCCCC1 [Compound 641]", "β-secretase(BACE) (Homo sapiens, UniProt P56817)", "48%"],
  ["NC1=Nc2ccc(Oc3ccccc3)cc2CN1C(CNC(=O)C1CCCCC1)Cc1ccc(O)cc1 (centres unmarked) [Compound 614]", "β-secretase(BACE) (Homo sapiens, UniProt P56817)", "<30%"],
  ["CCCC=Cc1ccc2c(c1)CN(CCNC(=O)c1ccc(NC(C)=O)cc1)C(N)=N2 [Compound 592]", "β-secretase(BACE) (Homo sapiens, UniProt P56817)", "<30%"]
]}

Now for another entry.
CCCC(=O)NCCN1Cc2cc(-c3ccccc3F)ccc2N=C1N [Compound 645] has a reported % Inhibition (FS) 3 μM of 91%

---

Each entry below lists one item and its recorded inhibition at 0.3 µM value.
Biological target: β-secretase(BACE) (Homo sapiens, UniProt P56817)
Construct: purchased Panvera
Assay: BACE FS1% Inhibition Assay
Type: biochemical
Details: 0.3 μM test compound; FS1 substrate; read-out: % Inhibition (FS) 0.3 μM
Description: BACE FS1% Inhibition Assay The following reagents were used in this assay: sodium acetate, PEG8000 (Sigma), DMSO, HEPES, FS1 substrate [[…]] […] The FS1-substrate stock solution was prepared in DMSO as a 10 mg/mL solution. The FS1-substrate working solution was prepared by diluting the 10 mg/mL stock solution with substrate assay buffer to a final concentration of 300 μg/mL. […] For test compounds, % inhibition was determined at each concentration as follows: [formula]

{"columns": ["compound", "inhibition at 0.3 µM"],
 "data": [
  ["NC1=Nc2ccc(Oc3ccccc3)cc2CN1C(Cc1ccccc1)c1ocnc1C(=O)NC1CCCCC1 (stereo not shown)", "< 30%"],
  ["NC1=Nc2ccc(-c3ccccc3O)cc2CN1CCNC(=O)C1CCCCC1", "< 30%"],
  ["NC1=Nc2ccc(-c3c(F)cccc3F)cc2CN1CCNC(=O)C1CCCCC1", "< 30%"],
  ["CN(C(=O)c1cccc(CN2Cc3cc(-c4c(Cl)cccc4Cl)ccc3N=C2N)c1)C1CCCCC1", "< 30%"],
  ["COc1ccccc1-c1ccc2c(c1)N=C(N)N(CCC(=O)NC1C3CC4CC(C3)CC1C4)C2 (stereo not shown)", "< 30%"]
]}

For the compound NC1=Nc2ccc(Oc3ccccc3)cc2CN1CCNC(=O)Nc1ccccc1 , the measured inhibition at 0.3 µM on β-secretase(BACE) (Homo sapiens, UniProt P56817) was < 30%

Test item CN(C(=O)c1cccc(CN2Cc3cc(-c4ccccc4F)ccc3N=C2N)c1)C1CCCCC1 ; β-secretase(BACE) (Homo sapiens, UniProt P56817); reported inhibition at 0.3 µM was 74%

---

Biological target: β-secretase(BACE) (Homo sapiens)
Construct: purchased Panvera
Test: BACE % Inhibition Assay ((Aedens)-[…]-(Dabcyl K-amide) substrate)
Assay type: biochemical
Settings: 0.3 μM test compound; % error ±10%
inhibition at 0.3 µM values for the compounds below.

{"columns": ["compound", "assayed_target", "inhibition at 0.3 µM"],
 "data": [
  ["CC(C)(C)OC(=O)NCC(C1CCCCC1)N1Cc2cc(Oc3ccccc3)ccc2N=C1N (stereo not drawn)", "β-secretase(BACE) (Homo sapiens)", "< 30%"],
  ["NC1=Nc2ccc(Oc3ccccc3)cc2CN1CCC(=O)NC12CC3CC(CC(C3)C1)C2", "β-secretase(BACE) (Homo sapiens)", "< 30%"]
]}

The recorded inhibition at 0.3 µM for NC1=Nc2ccc(Oc3ccccc3)cc2CN1C(CCNC(=O)CC1CCCC1)C1CCCCC1 (stereo not drawn) is < 30%
